# assay_details: Apparent permeability from basolateral to apical side in MDCK-MDR1 cells
# Format: ADME, cell-based, Canis lupus familiaris
# condition_label: dog
readout_kind: Papp B→A (×10⁻⁶ cm/s)
Give the value in ×10⁻⁶ cm/s but do not write ×10⁻⁶ cm/s after it.

What does the data say about its Papp B→A? Entry: C=CC(=O)NCCCC[C@H](NC(=O)OCc1ccccc1)C(=O)N1CCN(C(=O)[C@@H](Cc2ccccc2)NC(=O)c2cccc3ccccc23)CC1
5.46

And then C=CC(=O)NCCCC[C@H](NC(=O)OCc1ccccc1)C(=O)N1CCN(C(=O)CNC(=O)c2cccc3ccccc23)CC1 , what is it?
8.43

Source of measurements: ChEMBL document CHEMBL5230179
